Origin of values: PubChem BioAssay (NCI)

Tested on: NCI-H460 lung
Assay: NCI tumour cell line growth inhibition, 48 h
MEASURED_QUANTITY: TGI

Example compounds with recorded TGI:
Recorded TGI of CS(=O)(=O)Nc1ccc2c(c1)N(S(C)(=O)=O)CC2COS(C)(=O)=O (stereo not given) , please. > 100 µM

Okay, and C/C(=N\Nc1nc2ccccc2o1)c1ccc2ccccc2n1 ? 30.6 µM

New cases:
Recorded TGI of CCCCCCCC/C=C/CCCCCCCC(=O)N(O)C1CC(n2cc(C)c(=O)[nH]c2=O)OC1CO (stereo not given) , please. 13.6 µM

# repeat for Nc1nc2c3c(ncn3CC(O)CO2)n1 (stereo not given) > 100 µM

Try the compound O=C(Nc1ccccc1C(=O)N/N=C(\c1ccccc1)c1ccccn1)c1ccccc1 > 100 µM

Try this compound next: CN(C)[C@@H]1C(=O)C(C(=O)NCN2CCN(C(=N)N=C(N)N)CC2)=C(O)[C@@]2(O)C(=O)C3=C(O)c4c(O)cccc4[C@@](C)(O)[C@H]3C[C@@H]12 20.2 µM

Try CCOC(=O)c1cc(C(=O)c2cc(OC)c(OC)c(OC)c2)n2nc(C)ccc12 next. > 100 µM

And then O=C(O)CCC1(C(=O)O)CCC(=O)c2ccccc21 (stereo not given) , what is it? > 100 µM

And what about the compound CC(NC(=O)OC(C)(C)C)C(=O)NC1CCCC1 (stereo not given) ? > 100 µM

Also CC(C)NC1(C(N)=O)CCN(Cc2ccccc2)CC1 , if possible. > 100 µM
